# SUBJECT OF TEST: T1, human GIP receptor (human, UniProt P48546 22-466)
# T1 sequence (looked up): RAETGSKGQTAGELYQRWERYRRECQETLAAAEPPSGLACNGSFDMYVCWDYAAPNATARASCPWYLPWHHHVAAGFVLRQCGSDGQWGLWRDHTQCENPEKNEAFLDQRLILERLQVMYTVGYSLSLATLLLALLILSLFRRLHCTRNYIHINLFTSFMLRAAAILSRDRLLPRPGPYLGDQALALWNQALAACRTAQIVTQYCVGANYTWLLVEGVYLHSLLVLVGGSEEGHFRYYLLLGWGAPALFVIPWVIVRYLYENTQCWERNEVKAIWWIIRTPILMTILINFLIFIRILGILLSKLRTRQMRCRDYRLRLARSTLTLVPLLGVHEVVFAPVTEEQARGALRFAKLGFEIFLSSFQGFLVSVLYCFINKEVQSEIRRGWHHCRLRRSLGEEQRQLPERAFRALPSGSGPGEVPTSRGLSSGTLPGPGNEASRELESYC
# ASSAY TEXT: cell-based or functional assay
For each entry below, report its cAMP EC50 (1.0% HSA) value.
Give bare numbers, in nM.

{"columns": ["BINDER", "VALUE OBSERVED"],
 "data": [
  ["YXEGTXTSDYXIXLDXIAQXKFIXXLIEGGPSSGAPPPSK (Y-Aib-EGT-αMeF(2F)-TSDY-Aib-I-αMeL-LD-Orn-IAQ-Aib-K((2-[2-(2-Amino-ethoxy)-ethoxy]-acetyl)2-(γ-Glu)-(10-(4-carboxyphenoxy)decanoyl))FI-(D-Glu)-αMeY-LIEGGPSSGAPPPSK((2-[2-(2-Amino-ethoxy)-ethoxy]-acetyl)2-(γ-Glu)-(10-(4-carboxyphenoxy)decanoyl))-NH2) [Example 241]", 8.02]
]}

For each entry beneath this line, provide reported cAMP EC50 (1.0% HSA).
1. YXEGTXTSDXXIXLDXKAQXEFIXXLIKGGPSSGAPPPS (Y-Aib-EGT-αMeF(2F)-TSD-4Pal-Aib-I-αMeL-LD-Orn-K((2-[2-(2-Amino-ethoxy)-ethoxy]-acetyl)-(γ-Glu)-CO-(CH2)12-CO2H)AQ-Aib-EFI-(D-Glu)-αMeY-LIK((2-[2-(2-Amino-ethoxy)-ethoxy]-acetyl)-(γ-Glu)-CO-(CH2)12-CO2H)GGPSSGAPPPS-NH2) [Example 337]
2. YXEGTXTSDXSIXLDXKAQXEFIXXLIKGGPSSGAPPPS (Y-Aib-EGT-αMeF(2F)-TSD-2Nal-SI-αMeL-LD-Orn-K((2-[2-(2-Amino-ethoxy)-ethoxy]-acetyl)2-(γ-Glu)-CO-(CH2)12-CO2H)AQ-Aib-EFI-(D-Glu)-αMeY-LIK((2-[2-(2-Amino-ethoxy)-ethoxy]-acetyl)2-(γ-Glu)-CO-(CH2)12-CO2H)GGPSSGAPPPS-NH2) [Example 250]
3. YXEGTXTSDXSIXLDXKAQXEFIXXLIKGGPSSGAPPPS (Y-Aib-EGT-αMeF(2F)-TSD-2Nal-SI-αMeL-LD-Orn-K((2-[2-(2-Amino-ethoxy)-ethoxy]-acetyl)2-CO-(CH2)12-CO2H)AQ-Aib-EFI-(D-Glu)-αMeY-LIK((2-[2-(2-Amino-ethoxy)-ethoxy]-acetyl)2-CO-(CH2)12-CO2H)GGPSSGAPPPS-NH2 …) [Example 256]
4. YXEGTXTSDYXIXLDXKAQXEFIXXLIKGGPSSGAPPPS (Y-Aib-EGT-αMeF(2F)-TSDY-Aib-I-αMeL-LD-Orn-K((2-[2-(2-Amino-ethoxy)-ethoxy]-acetyl)2-(γ-Glu)-CO-(CH2)12-CO2H)AQ-Aib-EFI-(D-Glu)-αMeY-LIK((2-[2-(2-Amino-ethoxy)-ethoxy]-acetyl)2-(γ-Glu)-CO-(CH2)12-CO2H)GGPSSGAPPPS-NH2) [Example 231]
5. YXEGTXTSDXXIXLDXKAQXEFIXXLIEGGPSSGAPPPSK (Y-Aib-EGT-αMeF(2F)-TSD-4Pal-Aib-I-αMeL-LD-Orn-K((2-[2-(2-Amino-ethoxy)-ethoxy]-acetyl)2-(γ-Glu)-CO-(CH2)10-CH3)AQ-Aib-EFI-(D-Glu)-αMeY-LIEGGPSSGAPPPSK((2-[2-(2-Amino-ethoxy)-ethoxy]-acetyl)2-(γ-Glu)-CO-(CH2)10-CH3)-NH2) [Example 324]
6. YXEGTXTSDYXIXLDXIAQXEFIKXLIKGGPSSGAPPPS (Y-Aib-EGT-αMeF(2F)-TSDY-Aib-I-αMeL-LD-Orn-IAQ-Aib-EFIK(2-[2-(2-Amino-ethoxy)-ethoxy]-acetyl)3-(γ-Glu)-(10-(4-carboxyphenoxy)decanoyl)-αMeY-LIK((2-[2-(2-Amino-ethoxy)-ethoxy]-acetyl)3-(γ-Glu)-(10-(4-carboxyphenoxy)decanoyl)GGPSSGAPPPS-NH2)) [Example 346]

[2.65, 38.8, 1.5, 2.46, 0.321, 1.83]

For each entry beneath this line, provide reported cAMP EC50 (1.0% HSA).
1. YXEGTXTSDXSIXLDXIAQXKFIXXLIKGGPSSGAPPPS (Y-Aib-EGT-αMeF(2F)-TSD-2Nal-SI-αMeL-LD-Orn-IAQ-Aib-K((2-[2-(2-Amino-ethoxy)-ethoxy]-acetyl)2-(γ-Glu)-(10-(4-carboxyphenoxy)decanoyl))FI-(D-Glu)-αMeY-LIK((2-[2-(2-Amino-ethoxy)-ethoxy]-acetyl)2-(γ-Glu)-(10-(4-carboxyphenoxy)decanoyl))GGPSSGAPPPS-NH2) [Example 284]
2. YXEGTXTSDXXIXLDXIAQXKFIXXLIKGGPSSGAPPPS (Y-Aib-EGT-αMeF(2F)-TSD-4Pal-Aib-I-αMeL-LD-Orn-IAQ-Aib-K((2-[2-(2-Amino-ethoxy)-ethoxy]-acetyl)2-(γ-Glu)-CO-(CH2)12-CO2H)FI-(D-Glu)-αMeY-LIK((2-[2-(2-Amino-ethoxy)-ethoxy]-acetyl)2-(γ-Glu)-CO-(CH2)12-CO2H)GGPSSGAPPPS-NH2) [Example 220]
3. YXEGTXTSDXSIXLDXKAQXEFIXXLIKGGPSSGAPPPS (Y-Aib-EGT-αMeF(2F)-TSD-4Pal-SI-αMeL-LD-Orn-K((2-[2-(2-Amino-ethoxy)-ethoxy]-acetyl)3-(γ-Glu)-CO-(CH2)12-CO2H)AQ-Aib-EFI-(D-Glu)-αMeY-LIK((2-[2-(2-Amino-ethoxy)-ethoxy]-acetyl)3-(γ-Glu)-CO-(CH2)12-CO2H)GGPSSGAPPPS-NH2) [Example 224]

1. 8.38
2. 11.6
3. 2.92

For each entry beneath this line, provide reported cAMP EC50 (1.0% HSA).
1. YXEGTXTSDYXIXLDXKAQXKFIXXLIEGGPSSGAPPPS (Y-Aib-EGT-αMeF(2F)-TSDY-Aib-I-αMeL-LD-Orn-K((2-[2-(2-Amino-ethoxy)-ethoxy]-acetyl)2-(γ-Glu)-CO-(CH2)10-CH3)AQ-Aib-K((2-[2-(2-Amino-ethoxy)-ethoxy]-acetyl)2-(γ-Glu)-CO-(CH2)10-CH3)FI-(D-Glu)-αMeY-LIEGGPSSGAPPPS-NH2) [Example 300]
2. YXEGTXTSDXSIXLDXIAQXKFIXXLIEGGPSSGAPPPSK (Y-Aib-EGT-αMeF(2F)-TSD-OMeY-SI-αMeL-LD-Orn-IAQ-Aib-K((2-[2-(2-Amino-ethoxy)-ethoxy]-acetyl)2-CO-(CH2)12-CO2H)FI-(D-Glu)-αMeY-LIEGGPSSGAPPPSK((2-[2-(2-Amino-ethoxy)-ethoxy]-acetyl)2-CO-(CH2)12-CO2H)-NH2) [Example 268]

[1.25, 5.06]

FYI, the data here is from patent US20230265151A1.
